System: E. coli GC 2203
method: MIC, broth microdilution
test_context: Escherichia coli, GC2203, read-out: MINIMAL INHIBITORY CONCENTRATION MIC, pre-incubated in Mouse Serum
MIC listing for selected molecules.
API: value field is a number in mg/L; no unit string.

In the examples that follow, each entry is paired with its recorded MIC.
CCCCN(CC(=O)Nc1cc(N(C)C)c2c(c1O)C(=O)C1=C(O)[C@]3(O)C(=O)C(C(N)=O)=C(O)[C@@H](N(C)C)[C@@H]3C[C@@H]1C2)C(=O)OCOC(=O)c1cc(C)cc(C)c1 [Example 22] = 1
CCCCN(CC(=O)Nc1cc(N(C)C)c2c(c1O)C(=O)C1=C(O)[C@]3(O)C(=O)C(C(N)=O)=C(O)[C@@H](N(C)C)[C@@H]3C[C@@H]1C2)C(=O)OCOC(=O)c1ccc(-c2ccccc2)cc1 [Example 21] = 0.5

QUERY: Value lookup for MIC; key = CCCN(CC(=O)Nc1cc(N(C)C)c2c(c1O)C(=O)C1=C(O)[C@]3(O)C(=O)C(C(N)=O)=C(O)[C@@H](N(C)C)[C@@H]3C[C@@H]1C2)C(=O)OCOC(=O)c1ccsc1 [Example 27]
RESULT: 0.5

QUERY: Value lookup for MIC; key = CCCN(CC(=O)Nc1cc(N(C)C)c2c(c1O)C(=O)C1=C(O)[C@]3(O)C(=O)C(C(N)=O)=C(O)[C@@H](N(C)C)[C@@H]3C[C@@H]1C2)C(=O)OCOC(=O)c1ccc(-c2ccccc2)cc1 [Example 24]
RESULT: 0.5

QUERY: Value lookup for MIC; key = Cc1ccc(C(=O)OCOC(=O)N(CC(=O)Nc2cc(N(C)C)c3c(c2O)C(=O)C2=C(O)[C@]4(O)C(=O)C(C(N)=O)=C(O)[C@@H](N(C)C)[C@@H]4C[C@@H]2C3)C(C)(C)C)cc1 [Example 47]
RESULT: 1
